Where these numbers come from: PubChem BioAssay AID250

system: BDF1 mice, L1210 leukemia sc, survival T/C; test: NCI In Vivo Anticancer Drug Screen. Data for tumor model L1210 Leukemia (subcutaneous) in B6D2F1 (BDF1) mice; conditions: endpoint: median survival time; dose: 300.0 mg/kg/injection; schedule: Q01DX Z (sc); vehicle: saline; higher = longer survival
Toxic doses and inconclusive results are not listed.
measurement-name: T/C

These recorded examples may help you get a feel for the data.
compound	target-desc	T/C
O=c1[nH]cc(Br)c(=O)[nH]1	BDF1 mice, L1210 leukemia sc, survival T/C	100 % of control
[N-]=[N+]=CC(=O)NCC(=O)NN	BDF1 mice, L1210 leukemia sc, survival T/C	100 % of control
NC(=S)N/N=C/c1ccc(O)cn1	BDF1 mice, L1210 leukemia sc, survival T/C	108 % of control

Report the value of T/C obtained on BDF1 mice, L1210 leukemia sc, survival T/C for `O=C(Nc1ccc(NC(=O)Nc2cccc(C3=NCCN3)c2)cc1)Nc1cccc(C2=NCCN2)c1` . 100 % of control

Report the value of T/C obtained on BDF1 mice, L1210 leukemia sc, survival T/C for `O=C(Nc1ccc(C2=NCCN2)cc1)c1ccc(C(=O)Nc2ccc(C3=NCCN3)cc2)cc1` . 104 % of control

Report the value of T/C obtained on BDF1 mice, L1210 leukemia sc, survival T/C for CN(N=O)C(=O)NC(C=O)C(O)C(O)C(O)CO (configuration not stated) . 112 % of control

Report the value of T/C obtained on BDF1 mice, L1210 leukemia sc, survival T/C for CS(=O)(=O)OCC(O)C(O)COS(C)(=O)=O (configuration not stated) . 100 % of control

----------
test system: BDF1 mice, L1210 leukemia sc, survival T/C; assay: NCI In Vivo Anticancer Drug Screen. Data for tumor model L1210 Leukemia (subcutaneous) in B6D2F1 (BDF1) mice; details: endpoint: median survival time; dose: 7.8 mg/kg/injection; schedule: Q01DX Z (sc); vehicle: saline
Toxic doses and inconclusive results are not listed. Rule for the calls: active = survival T/C of 150% or more; inactive = T/C below 125% in these data.
Return exactly one item of 1 (yes) for active, 0 (no) for inactive

// return assay outcome for C=CC(COC(C)=O)N1CC1 (stereo not given) 0 (no)

----------
system: BDF1 mice, L1210 leukemia sc, survival T/C; experiment: NCI In Vivo Anticancer Drug Screen. Data for tumor model L1210 Leukemia (subcutaneous) in B6D2F1 (BDF1) mice; conditions: endpoint: median survival time; dose: 65.0 mg/kg/injection; schedule: Q01DX Z (sc); vehicle: carboxymethylcellulose (CMC)
Inconclusive results and toxic doses are left out. How the source made its calls: active means survival T/C of 150% or more; inactive means T/C below 125% in these data.
Return exactly one item of Y (active), N (inactive)

# example entries with known answers
compound	target-desc	cat
Cc1cccc(C)c1NC(=O)N(CCCl)N=O	BDF1 mice, L1210 leukemia sc, survival T/C	Y
CN(C)N=Nc1ccc(CCCC(=O)NN)cc1	BDF1 mice, L1210 leukemia sc, survival T/C	N

// return assay outcome for `CC[n+]1c(-c2ccccc2)c2cc(N)ccc2c2ccc(N)cc21` N

// return assay outcome for Nc1nc(=S)c2ncn(C3OC(COC(=O)c4ccc(Cl)cc4)C(OC(=O)c4ccc(Cl)cc4)C3OC(=O)c3ccc(Cl)cc3)c2[nH]1 (configuration not stated) N

// return assay outcome for `Nc1ncc(N)c(N)n1` N

// return assay outcome for `O=NN(CCF)C(=O)NC12CC3CC(CC(C3)C1)C2` Y

// return assay outcome for `Cc1c(O)ccc(=O)n1O` N

// return assay outcome for CCCC(=O)OCC1OC(n2cnc3c(=S)nc(N)[nH]c32)C(OC(=O)CCC)C1OC(=O)CCC (configuration not stated) Y

// return assay outcome for `CC(=O)c1ccc(NC(=O)N(CCCl)N=O)cc1` Y

// return assay outcome for `O=NN(CCCl)C(=O)N[C@H]1CCCC[C@@H]1Cl` Y

// return assay outcome for `COc1cc2c3c(c4ccc(OC)c(OC)c4c2cc1OC)CN1CCC[C@@H]1C3` N

// return assay outcome for O=NN(CCCl)C(=O)NC1CC2CCC1C2 (configuration not stated) Y
